Assign activity coefficient to each entry below.
assay: activity coefficient (dimensionless); of the first substance listed, at infinite dilution; xn = mol fraction of the nth substance listed; details: 328.15 K; Liquid; Chromatography; x1 = 0

Record request: activity coefficient value, item CCCCCCCCCC [decane] + CC(C)C[P+](C)(CC(C)C)CC(C)C.Cc1ccc(S(=O)(=O)[O-])cc1 23.6

How about this molecule: C1CCCC1 [cyclopentane] + CC(C)C[P+](C)(CC(C)C)CC(C)C.Cc1ccc(S(=O)(=O)[O-])cc1 6.79

How about this molecule: CCCCCCCC [octane] + CC(C)C[P+](C)(CC(C)C)CC(C)C.Cc1ccc(S(=O)(=O)[O-])cc1 17.2

How about this molecule: Cc1ccccc1C [1,2-dimethylbenzene] + CC(C)C[P+](C)(CC(C)C)CC(C)C.Cc1ccc(S(=O)(=O)[O-])cc1 2.1

How about this molecule: CCCCCC [hexane] + CC(C)C[P+](C)(CC(C)C)CC(C)C.Cc1ccc(S(=O)(=O)[O-])cc1 16.4

How about this molecule: Cc1ccccc1 [toluene] + CC(C)C[P+](C)(CC(C)C)CC(C)C.Cc1ccc(S(=O)(=O)[O-])cc1 1.69

How about this molecule: C1CCCCCCC1 [cyclooctane] + CC(C)C[P+](C)(CC(C)C)CC(C)C.Cc1ccc(S(=O)(=O)[O-])cc1 6.67
